assay: AUC(0-4h) in Sprague-Dawley rat at 10 mg/kg; assay type: ADME, organism-based; design: time < 5 hr, dose 10 mg/kg; details: plasma
Catalogue of AUC(0-t) at 5 h values
Supply the numeric figure in µM·h, leaving out any unit text.

Reference set, count: 2
Cc1c(N2C(=O)N3CC[C@@H](O)[C@H]3[C@H]2C(F)(F)F)ccc(C#N)c1Cl; 0.63
Cc1c(N2C(=O)N3CC[C@@H](O)[C@H]3[C@@H]2C(F)(F)F)ccc(C#N)c1Cl; 1.18

## Task Param item = `Cc1c(N2C(=O)[C@@H]3[C@H](O)CCN3C2=O)ccc(C#N)c1Cl` ; retrieve measured AUC(0-t) at 5 h.
## Result 8.8

## Task Param item = `Cc1c(N2C(=O)N3CC[C@H](O)[C@H]3[C@@H]2C)ccc(C#N)c1Cl` ; retrieve measured AUC(0-t) at 5 h.
## Result 2.89

## Task Param item = `CC[C@H]1[C@@H]2[C@@H](O)CCN2C(=O)N1c1ccc(C#N)c(Cl)c1C` ; retrieve measured AUC(0-t) at 5 h.
## Result 6.08

## Task Param item = `Cc1c(N2C[C@@H]3[C@H](O)CCN3C2=O)ccc(C#N)c1Cl` ; retrieve measured AUC(0-t) at 5 h.
## Result 6.38
